# Assay summary: activity coefficient (dimensionless); of the first substance listed, at infinite dilution; xn = mol fraction of the nth substance listed
# Setup conditions: 312.8 K; 101 kPa; Liquid; Chromatography; x1 = 0
Reported activity coefficient is given for each of the following molecules.
Assay endpoint: activity coefficient

CCCCO [butan-1-ol] + CCCCCC[n+]1ccn(C)c1.FC(F)(F)C(F)(F)[P-](F)(F)(F)(C(F)(F)C(F)(F)F)C(F)(F)C(F)(F)F    4.9
CCCCCC [hexane] + CCCCCC[n+]1ccn(C)c1.FC(F)(F)C(F)(F)[P-](F)(F)(F)(C(F)(F)C(F)(F)F)C(F)(F)C(F)(F)F    6.39
CCN(CC)CC [triethylamine] + CCCCCC[n+]1ccn(C)c1.FC(F)(F)C(F)(F)[P-](F)(F)(F)(C(F)(F)C(F)(F)F)C(F)(F)C(F)(F)F    2.09

----------
Reported activity coefficient is given for each of the following compounds.
# Assay summary: activity coefficient (dimensionless); of the first substance listed, at infinite dilution; xn = mol fraction of the nth substance listed
# Setup conditions: 322.55 K; 101 kPa; Liquid; Chromatography; x1 = 0
Assay endpoint: activity coefficient

c1ccncc1 [pyridine] + CCCCn1cc[n+](C)c1.O=S(=O)([N-]S(=O)(=O)C(F)(F)C(F)(F)F)C(F)(F)C(F)(F)F    0.386
CCCCCCCC [octane] + CCCCn1cc[n+](C)c1.O=S(=O)([N-]S(=O)(=O)C(F)(F)C(F)(F)F)C(F)(F)C(F)(F)F    20.4
CO [methanol] + CCCCn1cc[n+](C)c1.O=S(=O)([N-]S(=O)(=O)C(F)(F)C(F)(F)F)C(F)(F)C(F)(F)F    1.23
CCCCCCC [heptane] + CCCCn1cc[n+](C)c1.O=S(=O)([N-]S(=O)(=O)C(F)(F)C(F)(F)F)C(F)(F)C(F)(F)F    13.6
ClC(Cl)(Cl)Cl [tetrachloromethane] + CCCCn1cc[n+](C)c1.O=S(=O)([N-]S(=O)(=O)C(F)(F)C(F)(F)F)C(F)(F)C(F)(F)F    2.4
CCCCCCCCCC [decane] + CCCCn1cc[n+](C)c1.O=S(=O)([N-]S(=O)(=O)C(F)(F)C(F)(F)F)C(F)(F)C(F)(F)F    37.4
Cc1ccccc1C [1,2-dimethylbenzene] + CCCCn1cc[n+](C)c1.O=S(=O)([N-]S(=O)(=O)C(F)(F)C(F)(F)F)C(F)(F)C(F)(F)F    1.87
CCO [ethanol] + CCCCn1cc[n+](C)c1.O=S(=O)([N-]S(=O)(=O)C(F)(F)C(F)(F)F)C(F)(F)C(F)(F)F    1.65
CCC(=O)CC [pentan-3-one] + CCCCn1cc[n+](C)c1.O=S(=O)([N-]S(=O)(=O)C(F)(F)C(F)(F)F)C(F)(F)C(F)(F)F    0.624
CC(C)CO [2-methyl-1-propanol] + CCCCn1cc[n+](C)c1.O=S(=O)([N-]S(=O)(=O)C(F)(F)C(F)(F)F)C(F)(F)C(F)(F)F    2.26
CC#N [acetonitrile] + CCCCn1cc[n+](C)c1.O=S(=O)([N-]S(=O)(=O)C(F)(F)C(F)(F)F)C(F)(F)C(F)(F)F    0.528
OCC(F)(F)F [2,2,2-trifluoroethanol] + CCCCn1cc[n+](C)c1.O=S(=O)([N-]S(=O)(=O)C(F)(F)C(F)(F)F)C(F)(F)C(F)(F)F    0.457
c1ccsc1 [thiophene] + CCCCn1cc[n+](C)c1.O=S(=O)([N-]S(=O)(=O)C(F)(F)C(F)(F)F)C(F)(F)C(F)(F)F    0.977

Reference for the values: the NIST ThermoML archive (doi:10.1021/je200195q)
